- Target Desc: PTP1B (Homo sapiens)
- Measurement Protocol: PTP1B inhibition assay with p-nitrophenyl phosphate (pNPP) as substrate
- Condition Summary: 20 μM compound, 2% DMSO, pNPP substrate
Items are presented alongside their recorded % Inhibition (20 μM) on PTP1B.

| Compound | % Inhibition (20 μM) on PTP1B (%) |
| --- | --- |
| NC(=NOC(=O)Cc1c[nH]c2ccccc12)c1ccc([N+](=O)[O-])cc1 | 9.8 |
| O=[N+]([O-])c1ccc(-c2noc(Cc3c[nH]c4ccccc34)n2)cc1 [10d] | 44.5 |
| CCc1ccc(C(N)=NOC(=O)Cc2c[nH]c3ccccc23)cc1 | 23.4 |
| c1ccc(-c2noc(Cc3c[nH]c4ccccc34)n2)cc1 [10a] | 2.4 |
| NC(=NOC(=O)Cc1c[nH]c2ccccc12)c1ccccc1 | 7.3 |
| NC(=NOC(=O)Cc1c[nH]c2ccccc12)c1ccc(Cl)cc1 | 5.2 |
| Fc1ccc(-c2noc(Cc3c[nH]c4ccccc34)n2)cc1 [10b] | 19.8 |
| NC(=NOC(=O)Cc1c[nH]c2ccccc12)c1ccc(F)cc1 | 14.0 |
| Clc1ccc(-c2noc(Cc3c[nH]c4ccccc34)n2)cc1 [10c] | 40.0 |

----------
- Target Desc: PTP1B (Homo sapiens, UniProt P18031)
- Sequence (P18031 whole entry): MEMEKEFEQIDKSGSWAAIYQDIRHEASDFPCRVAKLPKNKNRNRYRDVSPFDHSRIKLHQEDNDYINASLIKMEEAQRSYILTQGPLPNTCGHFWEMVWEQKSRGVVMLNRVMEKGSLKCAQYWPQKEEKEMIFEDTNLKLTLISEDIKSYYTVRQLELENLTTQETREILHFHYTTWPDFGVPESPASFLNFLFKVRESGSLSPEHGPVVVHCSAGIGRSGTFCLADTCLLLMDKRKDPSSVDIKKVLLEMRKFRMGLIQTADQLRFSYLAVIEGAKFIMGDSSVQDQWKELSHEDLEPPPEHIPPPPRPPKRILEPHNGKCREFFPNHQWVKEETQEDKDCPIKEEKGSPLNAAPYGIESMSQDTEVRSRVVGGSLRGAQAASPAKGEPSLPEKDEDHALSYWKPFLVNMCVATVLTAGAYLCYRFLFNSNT
- Measurement Protocol: PTP1B inhibition assay with p-nitrophenyl phosphate (pNPP) as substrate
- Condition Summary: read-out: IC50 on PTP1B; pNPP substrate; dose-response run when inhibition >50% at 20 μM
pIC50: −log10 of the molar value.
Endpoint Name: pIC50

| Compound | Endpoint Name | Measured |
| --- | --- | --- |
| Clc1cccc2[nH]cc(Cc3nc(Cc4c[nH]c5ccccc45)no3)c12 [14u] | pIC50 | 5.01 |
| CCc1ccc(C(=O)ON=C(N)Cc2c[nH]c3ccccc23)cc1 [13a] | pIC50 | < 4.70 |
| c1ccc(-c2nc(Cc3c[nH]c4ccccc34)no2)nc1 [14o] | pIC50 | < 4.70 |
| Fc1ccccc1-c1nc(Cc2c[nH]c3ccccc23)no1 [14d] | pIC50 | < 4.70 |

----------
Items are presented alongside their recorded % Inhibition (20 μM) on TCPTP.
- Target Desc: UniProtKB P17706
- Sequence (P17706 whole entry): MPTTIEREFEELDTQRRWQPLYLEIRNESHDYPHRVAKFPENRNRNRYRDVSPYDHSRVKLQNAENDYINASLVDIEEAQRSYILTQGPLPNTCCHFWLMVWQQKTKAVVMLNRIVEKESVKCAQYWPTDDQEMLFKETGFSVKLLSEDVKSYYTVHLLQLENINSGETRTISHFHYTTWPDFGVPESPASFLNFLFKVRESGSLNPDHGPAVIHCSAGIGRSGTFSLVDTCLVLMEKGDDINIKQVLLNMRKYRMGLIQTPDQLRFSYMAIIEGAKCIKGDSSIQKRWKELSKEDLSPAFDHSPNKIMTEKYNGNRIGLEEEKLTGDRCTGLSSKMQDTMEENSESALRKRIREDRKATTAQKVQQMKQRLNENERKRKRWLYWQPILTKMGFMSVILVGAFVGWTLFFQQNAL
- Measurement Protocol: TCPTP inhibition assay (selectivity)
- Format: biochemical
- Condition Summary: 20 μM compound, 2% DMSO
Endpoint Name: % Inhibition (20 μM) on TCPTP (%)

| Molecule | Endpoint Name | Units Text | Measured |
| --- | --- | --- | --- |
| c1ccc2c(Cc3noc(C4CCCCC4)n3)c[nH]c2c1 [14n] | % Inhibition (20 μM) on TCPTP | % | 11.68 |
| c1ccc2c(Cc3noc(C4CCC4)n3)c[nH]c2c1 [14l] | % Inhibition (20 μM) on TCPTP | % | 25.52 |
| CCCCc1ccc(-c2nc(Cc3c[nH]c4ccccc34)no2)cc1 [14b] | % Inhibition (20 μM) on TCPTP | % | 50.31 |
| CCCCCCc1ccc(-c2nc(Cc3c[nH]c4ccccc34)no2)cc1 [14c] | % Inhibition (20 μM) on TCPTP | % | 54.18 |
| Brc1ccc2[nH]cc(Cc3nc(Cc4c[nH]c5ccccc45)no3)c2c1 [14s] | % Inhibition (20 μM) on TCPTP | % | 34.51 |
| Clc1cccc2[nH]cc(Cc3nc(Cc4c[nH]c5ccccc45)no3)c12 [14u] | % Inhibition (20 μM) on TCPTP | % | 38.74 |

----------
- Target Desc: PTP1B (Homo sapiens, UniProt P18031)
- Measurement Protocol: PTP1B inhibition assay with p-nitrophenyl phosphate (pNPP) as substrate
- Condition Summary: read-out: IC50 on PTP1B; pNPP substrate; dose-response run when inhibition >50% at 20 μM
pIC50: −log10 of the molar value.
Items are presented alongside their recorded pIC50.

| Molecule | pIC50 |
| --- | --- |
| CCCCC(=O)ON=C(N)Cc1c[nH]c2ccccc12 [13h] | < 4.70 |
| NC(Cc1c[nH]c2ccccc12)=NOC(=O)CCCCBr [13i] | < 4.70 |
| CCCCCCc1ccc(-c2nc(Cc3c[nH]c4ccccc34)no2)cc1 [14c] | 5.31 |
| COc1ccc(-c2nc(Cc3c[nH]c4ccccc34)no2)c(Br)c1 [14g] | < 4.70 |
| c1ccc2c(Cc3noc(C4CCC4)n3)c[nH]c2c1 [14l] | 5.07 |
| COc1ccc(C(=O)ON=C(N)Cc2c[nH]c3ccccc23)c(Br)c1 [13g] | < 4.70 |
| CCCCc1ccc(-c2nc(Cc3c[nH]c4ccccc34)no2)cc1 [14b] | 5.15 |
| Brc1ccc2[nH]cc(Cc3nc(Cc4c[nH]c5ccccc45)no3)c2c1 [14s] | 5.13 |
| ClC(Cl)c1nc(Cc2c[nH]c3ccccc23)no1 [14k] | < 4.70 |
| COc1ccc(C(=O)ON=C(N)Cc2c[nH]c3ccccc23)cc1 [13f] | < 4.70 |
| CC(=O)OCCCCc1nc(Cc2c[nH]c3ccccc23)no1 [14i] | < 4.70 |
